- Test system: Mus musculus
- assay-details: Reduction of immobility time in albino Swiss mouse at 100 mg/kg, ip pretreated for 1 hrs by forced swimming test
- Type: functional
- settings: route intraperitoneal
observable: Time (s)
All answers are understood in s, so give the number only.

Name the reported Time value associated with the compound NC(=O)N1c2ccccc2C=Cc2ccccc21 [CARBAMAZEPINE]
169

Name the reported Time value associated with the compound O=C1NN(C(=O)c2ccccc2Cl)C(c2ccccc2)=N/C1=C/c1ccccc1Cl
148.17

Name the reported Time value associated with the compound COc1ccc(/C=C2/N=C(c3ccccc3)N(C(=O)c3ccc(C)cc3)NC2=O)cc1
151.5

Name the reported Time value associated with the compound Cc1ccc(C(=O)N2NC(=O)/C(=C\c3ccc(O)cc3)N=C2c2ccccc2)cc1
147.33

Name the reported Time value associated with the compound Cc1ccc(/C=C2/N=C(c3ccccc3)N(C(=O)c3ccc(C)cc3)NC2=O)cc1
145.83

----------
- System: Mus musculus
- assay-details: Anticonvulsant activity in ip dosed albino mouse assessed as protection against MES-induced seizures after 0.5 hrs
- Type: functional
Hi there, I'd appreciate the recorded ED50 for every entry that follows.
State the result as a value with its unit after it.

Name the reported ED50 value associated with the compound COc1ccc(/C=C2/N=C(c3ccccc3)N(C(=O)c3ccc(C)cc3)NC2=O)cc1
100 mg/kg

Name the reported ED50 value associated with the compound Cc1ccc(/C=C2/N=C(c3ccccc3)N(C(=O)Cc3ccc(Cl)cc3)NC2=O)cc1
100 mg/kg

Name the reported ED50 value associated with the compound Cc1ccc(C(=O)N2NC(=O)/C(=C\c3ccc(O)cc3)N=C2c2ccccc2)cc1
30 mg/kg

Name the reported ED50 value associated with the compound Cc1ccc(/C=C2/N=C(c3ccccc3)N(C(=O)c3ccc(Cl)cc3)NC2=O)cc1
100 mg/kg

Name the reported ED50 value associated with the compound Cc1ccc(/C=C2/N=C(c3ccccc3)N(C(=O)COc3ccccc3)NC2=O)cc1
300 mg/kg

Name the reported ED50 value associated with the compound Cc1ccc(/C=C2/N=C(c3ccccc3)N(C(=O)c3ccc(C)cc3)NC2=O)cc1
100 mg/kg

Name the reported ED50 value associated with the compound O=C1NN(C(=O)c2ccccc2Cl)C(c2ccccc2)=N/C1=C/c1ccccc1Cl
30 mg/kg

Name the reported ED50 value associated with the compound O=C1NN(C(=O)c2ccc(Cl)cc2)C(c2ccccc2)=N/C1=C/c1ccccc1
100 mg/kg

Name the reported ED50 value associated with the compound O=C1NN(C(=O)c2ccc(F)cc2)C(c2ccccc2)=N/C1=C/c1ccc(O)cc1
300 mg/kg

Name the reported ED50 value associated with the compound O=C1NC(=O)C(c2ccccc2)(c2ccccc2)N1 [PHENYTOIN]
30 mg/kg

Name the reported ED50 value associated with the compound COc1ccc(/C=C2/N=C(c3ccccc3)N(C(=O)c3ccc(Cl)cc3)NC2=O)cc1
100 mg/kg
